pIC50 values by entry
# experimentalSystem: Sodium-dependent serotonin transporter (Rattus norvegicus)
# Sequence (P31652 whole entry): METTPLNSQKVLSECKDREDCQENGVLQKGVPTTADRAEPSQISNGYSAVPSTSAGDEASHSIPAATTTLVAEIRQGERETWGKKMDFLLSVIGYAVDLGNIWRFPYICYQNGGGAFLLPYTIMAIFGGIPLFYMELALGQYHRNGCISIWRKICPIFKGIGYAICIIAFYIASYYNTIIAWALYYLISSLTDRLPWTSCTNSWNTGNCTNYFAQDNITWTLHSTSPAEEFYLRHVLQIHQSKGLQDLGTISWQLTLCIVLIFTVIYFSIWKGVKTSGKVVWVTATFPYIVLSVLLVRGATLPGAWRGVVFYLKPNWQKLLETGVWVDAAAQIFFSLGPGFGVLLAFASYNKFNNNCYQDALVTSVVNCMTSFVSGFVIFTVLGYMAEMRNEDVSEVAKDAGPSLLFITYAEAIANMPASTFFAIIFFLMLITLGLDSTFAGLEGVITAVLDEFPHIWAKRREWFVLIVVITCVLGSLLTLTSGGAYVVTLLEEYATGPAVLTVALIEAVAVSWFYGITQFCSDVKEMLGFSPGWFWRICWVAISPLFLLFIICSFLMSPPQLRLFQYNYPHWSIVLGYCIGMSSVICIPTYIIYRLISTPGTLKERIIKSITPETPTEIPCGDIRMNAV
# procedureText: Inhibition of serotonin uptake at SERT in rat brain synaptosome
pIC50: −log10 of the molar value.
assayEndpoint: pIC50

> print(dat)
                                    molecule                        experimentalsystem  op  endpointresult
 1  c1cnc2ccc(C34CNCC3C4)cc2c1 (stereo not drawn)  Sodium-dependent serotonin transporter (Rattus norvegicus)   =            6.19
 2    c1csc(C23CNCC2C3)c1 (stereo not drawn)  Sodium-dependent serotonin transporter (Rattus norvegicus)   =            5.35
 3  c1ccc2oc(C34CNCC3C4)cc2c1 (stereo not drawn)  Sodium-dependent serotonin transporter (Rattus norvegicus)   =            6.85
 4    O=C1NCC2CC12c1cccs1 (stereo not drawn)  Sodium-dependent serotonin transporter (Rattus norvegicus)   <            5.00
 5        c1cc2c(cc1[C@@]13CNC[C@@H]1C3)CCC2  Sodium-dependent serotonin transporter (Rattus norvegicus)   =            7.01
 6  C[C@H]1NC[C@@H]2C[C@@]21c1cccs1 (relative stereo)  Sodium-dependent serotonin transporter (Rattus norvegicus)   =            5.24
 7  Brc1ccc(C23CNCC2C3)s1 (stereo not drawn)  Sodium-dependent serotonin transporter (Rattus norvegicus)   =            6.85
 8  FC12CNCC1(c1ccccc1)C2 (stereo not drawn)  Sodium-dependent serotonin transporter (Rattus norvegicus)   =            5.54
 9  Clc1cc(Cl)c(C23CNCC2C3)s1 (stereo not drawn)  Sodium-dependent serotonin transporter (Rattus norvegicus)   =            5.38
10  C[C@H]1NC[C@@]2(c3cccs3)C[C@@H]12 (relative stereo)  Sodium-dependent serotonin transporter (Rattus norvegicus)   =            5.12
11  Clc1ccc(C23CNCC2C3)s1 (stereo not drawn)  Sodium-dependent serotonin transporter (Rattus norvegicus)   =            6.72
12              c1cc([C@@]23CNC[C@@H]2C3)cs1  Sodium-dependent serotonin transporter (Rattus norvegicus)   =            5.17
13  FC(F)(F)c1ccc(C23CNCC2C3)s1 (stereo not drawn)  Sodium-dependent serotonin transporter (Rattus norvegicus)   =            6.72
14         Fc1ccc2sc([C@]34CNC[C@H]3C4)cc2c1  Sodium-dependent serotonin transporter (Rattus norvegicus)   =            7.48
15                c1csc([C@]23CNC[C@H]2C3)c1  Sodium-dependent serotonin transporter (Rattus norvegicus)   =            5.72
16  c1ccc([C@@H]2[C@H]3CNC[C@]32c2ccccc2)cc1  Sodium-dependent serotonin transporter (Rattus norvegicus)   =            6.62
17   CN1CC2CC2(c2cccs2)C1 (stereo not drawn)  Sodium-dependent serotonin transporter (Rattus norvegicus)   =            5.20
18  c1ccc2c(C34CNCC3C4)csc2c1 (stereo not drawn)  Sodium-dependent serotonin transporter (Rattus norvegicus)   =            7.14
19            Brc1ccc([C@@]23CNC[C@@H]2C3)s1  Sodium-dependent serotonin transporter (Rattus norvegicus)   =            6.42
20  c1cc2c(cc1C13CNCC1C3)OCO2 (stereo not drawn)  Sodium-dependent serotonin transporter (Rattus norvegicus)   =            5.82
21              c1csc([C@@]23CNC[C@@H]2C3)c1  Sodium-dependent serotonin transporter (Rattus norvegicus)   =            5.31
22  C[C@@H]1NC[C@@]2(c3cccs3)C[C@@H]12 (relative stereo)  Sodium-dependent serotonin transporter (Rattus norvegicus)   =            5.22
23  C[C@@H]1[C@H]2CNC[C@@]12c1ccc(Cl)c(Cl)c1 (relative stereo)  Sodium-dependent serotonin transporter (Rattus norvegicus)   =            6.72
24  CC1(C)C2CNCC21c1ccccc1 (stereo not drawn)  Sodium-dependent serotonin transporter (Rattus norvegicus)   =            5.74
25               Fc1ccc([C@]23CNC[C@H]2C3)s1  Sodium-dependent serotonin transporter (Rattus norvegicus)   =            5.09
26              Clc1ccc([C@]23CNC[C@H]2C3)s1  Sodium-dependent serotonin transporter (Rattus norvegicus)   =            7.09
27  c1ccc(-c2ccc(C34CNCC3C4)cc2)cc1 (stereo not drawn)  Sodium-dependent serotonin transporter (Rattus norvegicus)   =            6.80
28   c1ccc(C23CNCC2C3)cc1 (stereo not drawn)  Sodium-dependent serotonin transporter (Rattus norvegicus)   =            5.28

====

# procedureText: Apparent permeability across human CaCo2 cells
# Assay type: ADME, cell-based
# runConditions: Caco-2
assayEndpoint: Papp (×10⁻⁶ cm/s)

> print(dat)
              molecularstring  assayendpoint  endpointresult
1  c1csc([C@]23CNC[C@H]2C3)c1           Papp            17.6

====

# experimentalSystem: Sodium-dependent dopamine transporter (Rattus norvegicus)
# Sequence (P23977 whole entry): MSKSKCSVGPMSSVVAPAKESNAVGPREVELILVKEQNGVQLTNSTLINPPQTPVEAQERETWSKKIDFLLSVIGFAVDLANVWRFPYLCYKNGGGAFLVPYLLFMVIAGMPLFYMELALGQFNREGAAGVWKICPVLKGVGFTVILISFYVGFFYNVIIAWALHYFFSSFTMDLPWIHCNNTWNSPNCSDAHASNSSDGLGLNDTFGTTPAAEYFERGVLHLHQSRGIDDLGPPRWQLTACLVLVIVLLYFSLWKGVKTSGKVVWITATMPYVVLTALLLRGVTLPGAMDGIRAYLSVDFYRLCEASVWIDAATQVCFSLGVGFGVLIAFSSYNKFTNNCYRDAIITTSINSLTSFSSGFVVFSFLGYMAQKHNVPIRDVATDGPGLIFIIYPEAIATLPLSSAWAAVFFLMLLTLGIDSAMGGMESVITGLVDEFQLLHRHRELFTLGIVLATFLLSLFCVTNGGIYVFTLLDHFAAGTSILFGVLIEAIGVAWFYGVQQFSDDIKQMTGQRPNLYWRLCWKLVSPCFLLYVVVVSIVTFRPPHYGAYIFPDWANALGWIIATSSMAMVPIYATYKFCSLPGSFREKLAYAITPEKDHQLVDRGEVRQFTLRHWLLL
# procedureText: Inhibition of dopamine uptake at cloned DAT in rat brain synaptosome
pIC50: −log10 of the molar value.
pIC50 vs 6: at or above is condition met, below is condition not met.

> print(dat)
                                    compound                        experimentalsystem         labelvalue
 1            Clc1ccc([C@@]23CNC[C@@H]2C3)s1  Sodium-dependent dopamine transporter (Rattus norvegicus)  condition not met
 2  Brc1ccc(C23CNCC2C3)s1 (stereo not given)  Sodium-dependent dopamine transporter (Rattus norvegicus)  condition not met
 3  C[C@@H]1NC[C@@]2(c3cccs3)C[C@@H]12 (relative stereo)  Sodium-dependent dopamine transporter (Rattus norvegicus)  condition not met
 4  c1cc2c(cc1C13CNCC1C3)OCO2 (stereo not given)  Sodium-dependent dopamine transporter (Rattus norvegicus)  condition not met
 5  C[C@H]1NC[C@@]2(c3cccs3)C[C@@H]12 (relative stereo)  Sodium-dependent dopamine transporter (Rattus norvegicus)  condition not met
 6                c1csc([C@]23CNC[C@H]2C3)c1  Sodium-dependent dopamine transporter (Rattus norvegicus)  condition not met
 7  CC1(C)C2CNCC21c1ccccc1 (stereo not given)  Sodium-dependent dopamine transporter (Rattus norvegicus)  condition not met
 8  c1ccc2cc(C34CNCC3C4)ccc2c1 (stereo not given)  Sodium-dependent dopamine transporter (Rattus norvegicus)      condition met
 9    c1csc(C23CNCC2C3)c1 (stereo not given)  Sodium-dependent dopamine transporter (Rattus norvegicus)  condition not met
10              c1csc([C@@]23CNC[C@@H]2C3)c1  Sodium-dependent dopamine transporter (Rattus norvegicus)  condition not met
11  c1ccc(-c2ccc(C34CNCC3C4)cc2)cc1 (stereo not given)  Sodium-dependent dopamine transporter (Rattus norvegicus)  condition not met
12              c1cc([C@@]23CNC[C@@H]2C3)cs1  Sodium-dependent dopamine transporter (Rattus norvegicus)  condition not met
13  c1ccc([C@@H]2[C@H]3CNC[C@]32c2ccccc2)cc1  Sodium-dependent dopamine transporter (Rattus norvegicus)  condition not met
14   Cc1csc(C23CNCC2C3)c1 (stereo not given)  Sodium-dependent dopamine transporter (Rattus norvegicus)  condition not met
15            Brc1ccc([C@@]23CNC[C@@H]2C3)s1  Sodium-dependent dopamine transporter (Rattus norvegicus)  condition not met
16        c1cc2c(cc1[C@@]13CNC[C@@H]1C3)CCO2  Sodium-dependent dopamine transporter (Rattus norvegicus)  condition not met
17   c1ccc(C23CNCC2C3)cc1 (stereo not given)  Sodium-dependent dopamine transporter (Rattus norvegicus)  condition not met
18  Clc1ccc([C@@]23CNC[C@@H]2[C@H]3c2ccccc2)cc1Cl (relative stereo)  Sodium-dependent dopamine transporter (Rattus norvegicus)      condition met
19  c1ccc2sc(C34CNCC3C4)cc2c1 (stereo not given)  Sodium-dependent dopamine transporter (Rattus norvegicus)      condition met
20   CN1CC2CC2(c2cccs2)C1 (stereo not given)  Sodium-dependent dopamine transporter (Rattus norvegicus)  condition not met
21  Clc1cc(Cl)c(C23CNCC2C3)s1 (stereo not given)  Sodium-dependent dopamine transporter (Rattus norvegicus)  condition not met
22  FC(F)(F)c1ccc(C23CNCC2C3)s1 (stereo not given)  Sodium-dependent dopamine transporter (Rattus norvegicus)  condition not met
23  C[C@@H]1[C@H]2CNC[C@@]12c1ccc(Cl)c(Cl)c1 (relative stereo)  Sodium-dependent dopamine transporter (Rattus norvegicus)      condition met
24  C[C@H]1NC[C@@H]2C[C@@]21c1cccs1 (relative stereo)  Sodium-dependent dopamine transporter (Rattus norvegicus)  condition not met
25         Fc1ccc2sc([C@]34CNC[C@H]3C4)cc2c1  Sodium-dependent dopamine transporter (Rattus norvegicus)      condition met
26    O=C1NCC2CC12c1cccs1 (stereo not given)  Sodium-dependent dopamine transporter (Rattus norvegicus)  condition not met
27        c1cc2c(cc1[C@@]13CNC[C@@H]1C3)CCC2  Sodium-dependent dopamine transporter (Rattus norvegicus)  condition not met
28  FC12CNCC1(c1ccccc1)C2 (stereo not given)  Sodium-dependent dopamine transporter (Rattus norvegicus)  condition not met
29               Fc1ccc([C@]23CNC[C@H]2C3)s1  Sodium-dependent dopamine transporter (Rattus norvegicus)  condition not met
30  c1cnc2ccc(C34CNCC3C4)cc2c1 (stereo not given)  Sodium-dependent dopamine transporter (Rattus norvegicus)  condition not met
31  C[C@H]1[C@H]2CNC[C@]21c1ccc(Cl)c(Cl)c1 (relative stereo)  Sodium-dependent dopamine transporter (Rattus norvegicus)      condition met
32  c1ccc2oc(C34CNCC3C4)cc2c1 (stereo not given)  Sodium-dependent dopamine transporter (Rattus norvegicus)      condition met
33  Clc1ccc(C23CNCC2C3)s1 (stereo not given)  Sodium-dependent dopamine transporter (Rattus norvegicus)  condition not met
